Test system: CD2F1 mice, L1210 leukemia ip, survival T/C
experiment notes: NCI In Vivo Anticancer Drug Screen. Data for tumor model L1210 Leukemia (intraperitoneal) in CD2F1 (CDF1) mice
condition: endpoint: mean survival time; dose: 12.5 mg/kg/injection; schedule: Q04DX003 (ip); vehicle: saline with Tween-80; higher = longer survival
Toxic doses and inconclusive results are not listed.
Listed next: entries and their corresponding T/C.

Answered examples (3):
# molecule, T/C
rows = [
    ("CC1(C)CCC(C#N)=C1N", "97 % of control"),
    ("c1cc2c(c(NC3=NCCCO3)c1)CCCC2", "97 % of control"),
    ("O=C1OC(=O)C2C3C=CC(C3)C12 (centres undefined)", "95 % of control"),
]

Now for another entry.
Prompt line: I have this molecule here, [Cl-].[NH-]CCN(CC[NH-])CCN.[O-][Cl+3]([O-])([O-])O.[O-][Cl+3]([O-])([O-])O.[Pt+2] , and I need its recorded T/C.
Response line: 97 % of control

---

System: CD2F1 mice, L1210 leukemia ip, survival T/C
experiment notes: NCI In Vivo Anticancer Drug Screen. Data for tumor model L1210 Leukemia (intraperitoneal) in CD2F1 (CDF1) mice
condition: endpoint: mean survival time; dose: 100.0 mg/kg/injection; schedule: Q04DX003 (ip); vehicle: saline; higher = longer survival
Description: The antitumor activity of compounds was measured in mice bearing transplantable tumors. Survival or tumor size were measured and the results are expressed as the measurement made in the treated group (T) divided by the measurement made in the vehicle treated control group (C). The tumor model used in this assay is L1210 Leukemia (intraperitoneal) in CD2F1 (CDF1) mice
Inconclusive results and toxic doses are left out.
Listed next: entries and their corresponding T/C.

Answered examples (6):
# compound, T/C
records = [
    ("O=C1C=CC(=O)N1Cc1ccco1", "102 % of control"),
    ("CCCCCCCCC(=O)CC", "98 % of control"),
    ("CC(C#N)(Nc1ccccc1)c1ccccc1 (centres undefined)", "102 % of control"),
    ("CC1=C(/C=C/C(O)CC(O)(C(F)(F)F)C(F)(F)F)C(C)(C)CCC1 (centres undefined)", "107 % of control"),
    ("O=[P+](O)C(O)c1ccccc1 (centres undefined)", "108 % of control"),
    ("CCCCOc1ccc(NC(=O)CCl)cc1", "94 % of control"),
]

Prompt line: I have this compound here, OCC(O)C(O)C(O)C(O)CO (centres undefined) , and I need its recorded T/C.
Response line: 96 % of control

Prompt line: Consider next the compound O=c1[nH]c(=O)n(C2CC(O)C(CO)O2)cc1I (centres undefined) in the same way.
Response line: 106 % of control

Prompt line: Consider next the compound CC1(C)C(C2CCCC[N+]2=O)CS1(=O)=O (centres undefined) in the same way.
Response line: 101 % of control

Prompt line: Consider next the compound CN(C)C(C)(C)P(=O)(O)O in the same way.
Response line: 98 % of control

Prompt line: Consider next the compound CC(C)=CCO in the same way.
Response line: 105 % of control

Prompt line: Consider next the compound Nc1ncnc2[nH]c(=O)[nH]c12 in the same way.
Response line: 108 % of control

Prompt line: Consider next the compound CC(=O)OCC1OC(OC(C)=O)C([NH-])C(OC(C)=O)C1OC(C)=O.CC(=O)OCC1OC(OC(C)=O)C([NH-])C(OC(C)=O)C1OC(C)=O.[Cl][Pt+2][Cl] (centres undefined) in the same way.
Response line: 90 % of control

Prompt line: Consider next the compound CCOC(=O)C(C(=O)OCC)[N+](=O)[O-] in the same way.
Response line: 100 % of control
